System: PLK-1 mRNA in Hep3B tumors
PROTOCOL_DETAILS: Hep3B tumor study, PLK-1 mRNA KD in tumor tissue
Type: in vivo, human
CONDITION_SET: Hep3B tumor, mouse, i.v.; 1 × 1 mg siRNA/kg; LNP composition as in the source
ENDPOINT_LABEL: PLK1 inhibition % (%)
Hi! Could you send only the number? It should be in %, unit omitted.

MOLECULE	TARGET_OR_TEST_SYSTEM	PLK1 inhibition % (%)
CCCCCCCC/C=C\CCCCCCCCOCC(CN1CCOCC1)OCCOC(=O)CO[C@H]1CC[C@@]2(C)C(=CCC3[C@@H]4CC[C@H]([C@H](C)CCCC(C)C)[C@@]4(C)CC[C@@H]32)C1 (stereo partly shown)	PLK-1 mRNA in Hep3B tumors	23
CCCCC/C=C\C/C=C\CCCCCCCCOCC(CN1CCC(C)CC1)OCCOCCO[C@H]1CC[C@@]2(C)C(=CC[C@H]3[C@@H]4CC[C@H]([C@H](C)CCCC(C)C)[C@@]4(C)CC[C@@H]32)C1 (stereo partly shown)	PLK-1 mRNA in Hep3B tumors	38
CCCCCCCC/C=C\CCCCCCCCOCC(CCN1CCOCC1)OCCOCCO[C@H]1CC[C@@]2(C)C(=CCC3C2CC[C@@]2(C)C3CC[C@@H]2[C@H](C)CCCC(C)C)C1 (stereo partly shown)	PLK-1 mRNA in Hep3B tumors	16
CCCCCCCC/C=C\CCCCCCCCOCC(CN1CCCC(C)C1)OCCOCCO[C@H]1CC[C@@]2(C)C(=CC[C@H]3[C@@H]4CC[C@H]([C@H](C)CCCC(C)C)[C@@]4(C)CC[C@@H]32)C1 (stereo partly shown)	PLK-1 mRNA in Hep3B tumors	40
CCCCCCCC/C=C\CCCCCCCCOCC(CN1CCCCC1)OCCO[C@H]1CC[C@@]2(C)C(=CC[C@H]3[C@@H]4CC[C@H]([C@H](C)CCCC(C)C)[C@@]4(C)CC[C@@H]32)C1 (stereo partly shown)	PLK-1 mRNA in Hep3B tumors	23
CCCCC/C=C\C/C=C\CCCCCCCCOCC(CN1CCC(O)C1)OCCOCCO[C@H]1CC[C@@]2(C)C(=CC[C@H]3[C@@H]4CC[C@H]([C@H](C)CCCC(C)C)[C@@]4(C)CC[C@@H]32)C1 (stereo partly shown)	PLK-1 mRNA in Hep3B tumors	36
CCCCCCCC/C=C\CCCCCCCCOCC(CN1CCOCC1)OCCOCC(=O)OC1CC[C@@]2(C)C(=CCC3C2CC[C@@]2(C)C3CC[C@@H]2[C@H](C)CCCC(C)C)C1 (stereo partly shown)	PLK-1 mRNA in Hep3B tumors	23
CCCCC/C=C\C/C=C\CCCCCCCCOC[C@@H](CN1CCC[C@@H]1C)OCCCOC(=O)CCC(=O)O[C@H]1CC[C@@]2(C)C(=CCC3C2CC[C@@]2(C)C3CC[C@@H]2[C@H](C)CCCC(C)C)C1 (stereo partly shown)	PLK-1 mRNA in Hep3B tumors	45
CCCCCCCC/C=C\CCCCCCCCOCOCC(CN1CCCCC1)OCCCOC(=O)CCC(=O)O[C@H]1CC[C@@]2(C)C(=CC[C@H]3[C@@H]4CC[C@H]([C@H](C)CCCC(C)C)[C@@]4(C)CC[C@@H]32)C1 (stereo partly shown)	PLK-1 mRNA in Hep3B tumors	38

Exercise: Fill blank: measured PLK1 inhibition % of the molecule CCCCC/C=C\C/C=C\CCCCCCCCOCC(CN1CCC(CCC)C1)OCCOCCO[C@H]1CC[C@@]2(C)C(=CCC3C2CC[C@@]2(C)C3CC[C@@H]2[C@H](C)CCCC(C)C)C1 (stereo partly shown) is ____.
Key: 27

* * *

Test system: Factor VII
PROTOCOL_DETAILS: Factor VII activity assay, in vivo liver delivery of FVII siRNA LNP
Parameters: species or system mouse
CONDITION_SET: dose 3 mg/kg siRNA i.v., ~48 h; lipid/no neutral lipid/CHOL/AVANTI 880150P 50/0/46/4, N/P 3.43
Experimental: Female CD-1 mice are received from Charles River Labs and maintained on standard lab chow and water ad libitum. The animals weigh approximately 25 grams at time of dosing. Formulated siRNA is administered as a single dose at various dose levels intravenously via the lateral tail vein calculated on a (mg siRNAs/kg) basis according to individual animal weights (10 ml/kg injection volume). […]
Quick list: FVII inhib % per entry.
Hi! Could you send only the number? It should be in %, unit omitted.

Example results:
COMPOUND	FVII inhib % [%]
CCCCC/C=C\C/C=C\CCCCCCCCOCC(CN1CCC(CCC)C1)OCCOCCO[C@H]1CC[C@@]2(C)C(=CCC3C2CC[C@@]2(C)C3CC[C@@H]2[C@H](C)CCCC(C)C)C1 (some centres unmarked)	94.2
CCCCC/C=C\C/C=C\CCCCCCCCOCC(CN1CCC(F)(F)CC1)OCCOCCO[C@H]1CC[C@@]2(C)C(=CCC3C2CC[C@@]2(C)C3CC[C@@H]2[C@H](C)CCCC(C)C)C1 (some centres unmarked)	14.3
CCCCC/C=C\C/C=C\CCCCCCCCOCC(CN1CCC(OC)C1)OCCCCO[C@H]1CC[C@@]2(C)C(=CCC3C2CC[C@@]2(C)C3CC[C@@H]2[C@H](C)CCCC(C)C)C1 (some centres unmarked)	66.8
CCCCC/C=C\C/C=C\CCCCCCCCOCC(CN1CCCC[C@@H]1C)OCCOCCO[C@H]1CC[C@@]2(C)C(=CCC3C2CC[C@@]2(C)C3CC[C@@H]2[C@H](C)CCCC(C)C)C1 (some centres unmarked)	85.2

Exercise: Fill blank: measured FVII inhib % of the compound CCCCC/C=C\C/C=C\CCCCCCCCOCC(CN1CCCCC1)OC(=O)CCC(=O)O[C@H]1CC[C@@]2(C)C(=CCC3C2CC[C@@]2(C)C3CC[C@@H]2[C@H](C)CCCC(C)C)C1 (some centres unmarked) is ____.
Key: −23.1

* * *

PROTOCOL_DETAILS: Particle size and PDI by dynamic light scattering (Malvern Zetasizer)
Assay type: physicochemical
Set-up: unit not given here
CONDITION_SET: LNP formulation, Table 10
Parameter threshold = 100. Response is TRUE when Final size meets or exceeds it, else FALSE.

MOLECULE	CATEGORY_LABEL
CCCCC/C=C\C/C=C\CCCCCCCCOC[C@@H](CN1CCC[C@H]1C)OCCCOC(=O)CCC(=O)O[C@H]1CC[C@@]2(C)C(=CCC3C2CC[C@@]2(C)C3CC[C@@H]2[C@H](C)CCCC(C)C)C1 (stereo partly drawn)	TRUE
CCCCCCCC/C=C\CCCCCCCCOCC(CN1CCCCC1)OCCCOC(=O)CCC(=O)O[C@H]1CC[C@@]2(C)C(=CC[C@H]3[C@@H]4CC[C@H]([C@H](C)CCCC(C)C)[C@@]4(C)CC[C@@H]32)C1 (stereo partly drawn)	FALSE
CCCCCCCC/C=C\CCCCCCCCOCC(CCN1CCOCC1)OCCOCCO[C@H]1CC[C@@]2(C)C(=CCC3C2CC[C@@]2(C)C3CC[C@@H]2[C@H](C)CCCC(C)C)C1 (stereo partly drawn)	FALSE

Here is the next item to consider.
Exercise: Evaluate CCCCCCCC/C=C\CCCCCCCCOCC(CN1CCOCC1)OCCOCCO[C@H]1CC[C@@]2(C)C(=CC[C@H]3[C@@H]4CC[C@H]([C@H](C)CCCC(C)C)[C@@]4(C)CC[C@@H]32)C1 (stereo partly drawn) : Final size at minimum 100?
Key: FALSE

* * *

PROTOCOL_DETAILS: Particle size and PDI by dynamic light scattering (Malvern Zetasizer)
Format: physicochemical
CONDITION_SET: lipid/no neutral lipid/CHOL/AVANTI 880150P 50/0/46/4, N/P 3.43
ENDPOINT_LABEL: PDI

Exercise: Fill blank: measured PDI of the compound CCCCC/C=C\C/C=C\CCCCCCCCOCC(CN1CCC(N2CCOCC2)C1)OCCOCCO[C@H]1CC[C@@]2(C)C(=CC[C@H]3[C@@H]4CC[C@H]([C@H](C)CCCC(C)C)[C@@]4(C)CC[C@@H]32)C1 (stereo partly shown) is ____.
Key: 0.08

Exercise: Fill blank: measured PDI of the compound CCCCC/C=C\C/C=C\CCCCCCCCOCC(CN1CCC(OC)C1)OCCCCO[C@H]1CC[C@@]2(C)C(=CCC3C2CC[C@@]2(C)C3CC[C@@H]2[C@H](C)CCCC(C)C)C1 (stereo partly shown) is ____.
Key: 0.21

Exercise: Fill blank: measured PDI of the compound CCCCC/C=C\C/C=C\CCCCCCCCOCC(CN1CCC[C@H]1C)OCCOCCO[C@H]1CC[C@@]2(C)C(=CCC3C2CC[C@@]2(C)C3CC[C@@H]2[C@H](C)CCCC(C)C)C1 (stereo partly shown) is ____.
Key: 0.09

Exercise: Fill blank: measured PDI of the compound CCCCC/C=C\C/C=C\CCCCCCCCOCC(CN1CCC(CCOC)CC1)OCCOCCO[C@H]1CC[C@@]2(C)C(=CCC3C2CC[C@@]2(C)C3CC[C@@H]2[C@H](C)CCCC(C)C)C1 (stereo partly shown) is ____.
Key: 0.05

Exercise: Fill blank: measured PDI of the compound CCCCC/C=C\C/C=C\CCCCCCCCOCC(CN1CC2CCCC2C1)OCCOCCO[C@H]1CC[C@@]2(C)C(=CC[C@H]3[C@@H]4CC[C@H]([C@H](C)CCCC(C)C)[C@@]4(C)CC[C@@H]32)C1 (stereo partly shown) is ____.
Key: 0.192

Exercise: Fill blank: measured PDI of the compound CCCCC/C=C\C/C=C\CCCCCCCCOCC(CN1CCCCC1)OC(=O)CCC(=O)O[C@H]1CC[C@@]2(C)C(=CCC3C2CC[C@@]2(C)C3CC[C@@H]2[C@H](C)CCCC(C)C)C1 (stereo partly shown) is ____.
Key: 0.24

Exercise: Fill blank: measured PDI of the compound CCCCC/C=C\C/C=C\CCCCCCCCOCC(CN1CCCCC1)OC(=O)COCC(=O)O[C@H]1CC[C@@]2(C)C(=CCC3C2CC[C@@]2(C)C3CC[C@@H]2[C@H](C)CCCC(C)C)C1 (stereo partly shown) is ____.
Key: 0.061
